Target: Angiotensin-converting enzyme 2 (Homo sapiens, UniProt Q9BYF1)
Sequence (Q9BYF1 whole entry): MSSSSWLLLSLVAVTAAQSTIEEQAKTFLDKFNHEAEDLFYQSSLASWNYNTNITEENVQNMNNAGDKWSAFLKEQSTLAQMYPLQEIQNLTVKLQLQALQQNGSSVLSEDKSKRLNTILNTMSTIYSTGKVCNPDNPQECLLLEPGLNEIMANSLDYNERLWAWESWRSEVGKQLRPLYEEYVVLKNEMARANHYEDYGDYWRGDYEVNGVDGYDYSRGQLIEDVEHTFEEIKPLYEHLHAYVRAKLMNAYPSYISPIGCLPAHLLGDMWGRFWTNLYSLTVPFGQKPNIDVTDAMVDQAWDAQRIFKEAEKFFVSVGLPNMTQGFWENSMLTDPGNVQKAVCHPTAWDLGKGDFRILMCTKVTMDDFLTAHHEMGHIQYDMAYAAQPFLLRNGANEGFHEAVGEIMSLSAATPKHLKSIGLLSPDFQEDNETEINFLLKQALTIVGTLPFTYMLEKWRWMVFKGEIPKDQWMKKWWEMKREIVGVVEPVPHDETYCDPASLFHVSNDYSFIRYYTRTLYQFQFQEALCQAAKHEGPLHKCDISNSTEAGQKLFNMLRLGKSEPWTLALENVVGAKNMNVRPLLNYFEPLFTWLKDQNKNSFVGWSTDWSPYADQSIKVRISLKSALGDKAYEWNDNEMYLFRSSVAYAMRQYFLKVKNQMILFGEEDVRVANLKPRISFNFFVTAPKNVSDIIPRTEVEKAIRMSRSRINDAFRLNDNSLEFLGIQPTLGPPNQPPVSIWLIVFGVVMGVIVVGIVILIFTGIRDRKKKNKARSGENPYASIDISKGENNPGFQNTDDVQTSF
Experiment: Inhibition of recombinant human ACE2 using MCA-Tyr-Val-Ala-Asp-Ala-Pro-Lys(DNP)-OH as substrate preincubated for 15 mins followed by substrate addition and measured upto 15 mins by fluorescence assay
Property measured: pIC50
Would you please state pIC50, meaning minus log10 of the concentration in mol/L, as a bare number?

Qu. Suppose we examine the molecule `C[C@@H](NCCCc1cccc(C(F)(F)F)c1)c1cccc2ccccc12` ; what pIC50 value has been reported?
Ans. 4.55

###

Organism: Sus scrofa
Assay: Inhibition of porcine heart malate dehydrogenase assessed as critical aggregation concentration preincubated for 5 min followed by nicotinamide adenine dinucleotide addition and monitered for 90 sec by spectrophotometric method
Format: tissue-based
Property measured: CAC (µM)
Reply with just the number (in µM).

{"columns": ["Compound", "Value unit", "CAC"],
 "data": [
  ["COC(=O)C1=C(C)NC(C)=C(C(=O)OCCN2CCN(C(c3ccccc3)c3ccccc3)CC2)C1c1cccc([N+](=O)[O-])c1 (centres undefined) [MANIDIPINE 6300]", "µM", 2.8],
  ["COc1c2ccc(-c3ccccc3)oc-2cc(=O)c1C [DRACORHODIN]", "µM", 22],
  ["C/C(=C\\c1ccc(C(=O)O)cc1)c1ccc2c(c1)C(C)(C)CCC2(C)C", "µM", 5.2]
]}

Consider the record given below.
Qu. State the recorded CAC for this entry: `O=C(O)c1cccc(CN2C(=O)/C(=C(\c3ccccc3)c3ccc(Cl)cc3)c3ccccc32)c1`
Ans. 49

###

Species: Sus scrofa
Assay: Inhibition of porcine heart malate dehydrogenase assessed as critical aggregation concentration preincubated for 5 min followed by nicotinamide adenine dinucleotide addition and monitered for 90 sec by spectrophotometric method
Format: tissue-based
Property measured: log10 of CAC (log10 of the value in µM)
Scale type: logarithmic (base 10). Underlying CAC unit: µM.

Consider the worked cases shown below.
{"columns": ["Compound", "Numeric value"],
 "data": [
  ["CC(C)=CC[C@@H](O)C1=CC(=O)c2c(O)ccc(O)c2C1=O", 0.89],
  ["O=C1C=C2CC3(O)COc4c(ccc(O)c4O)C3=C2C=C1O (stereo not drawn)", 2.09],
  ["COc1ccc(-c2ccc3cc(C(=O)O)ccc3c2)cc1C12CC3CC(CC(C3)C1)C2", 0.96],
  ["Cc1cc2c(C(C)C)c(O)c(O)c(C=O)c2c(O)c1-c1c(C)cc2c(C(C)C)c(O)c(O)c(C=O)c2c1O", 1.53]
]}

Qu. So what does the record say about log10 of CAC for `C[C@@H](NCCCc1cccc(C(F)(F)F)c1)c1cccc2ccccc12` ?
Ans. 1.72

Qu. Field request: log10 of CAC | item: `Cc1cc(O)c2c(=O)c3c(O)cc(O)c4c5c(O)cc(O)c6c(=O)c7c(O)cc(C)c8c1c2c(c34)c(c78)c65`
Ans. -0.52

Qu. Form field: reported log10 of CAC of COC(=O)C1=C(C)NC(C)=C(C(=O)OC(C)(C)CN(C)CCC(c2ccccc2)c2ccccc2)C1c1cccc([N+](=O)[O-])c1 (stereo not drawn)
Ans. 0.60

Qu. Record request: log10 of CAC value, item Cc1c(C)c2c(c(C)c1O)CCC(C)(CCCC(C)CCCC(C)CCCC(C)C)O2 (stereo not drawn)
Ans. 0.18
